Listing of recorded melting point by entry.
readout: melting point

[
  {
    "compound": "CCc1nc2ccc(Cl)cn2c1C(=O)NCc1cc2cc(Cl)ccc2o1 [compound 366]",
    "experimental_value": "223.5 to 225.6 °C"
  },
  {
    "compound": "CCc1nc2cc(Cl)ccn2c1C(=O)NCc1ccc(N2CCC(Oc3ccc(F)cc3)CC2)cc1 [compound 70]",
    "experimental_value": "138 to 139 °C"
  },
  {
    "compound": "CCc1nc2ccc(Cl)cn2c1C(=O)NCc1ccc(N2CCC(COc3ccc(F)cc3)CC2)cc1 [compound 244]",
    "experimental_value": "171 °C"
  },
  {
    "compound": "CCc1nc2cc(Cl)ccn2c1C(=O)NCc1ccc(Oc2ccc(OC(F)(F)F)cc2)cc1 [compound 128]",
    "experimental_value": "141 to 142 °C"
  },
  {
    "compound": "CCc1nc2ccc(Cl)cn2c1COc1ccc(OC(F)(F)F)cc1 [compound 143]",
    "experimental_value": "127 to 128 °C"
  },
  {
    "compound": "CCc1nc2ccc(Cl)cn2c1C(=O)NCC1CCN(Cc2ccc(OC(F)(F)F)cc2)CC1 [compound 138]",
    "experimental_value": "171 to 172 °C"
  },
  {
    "compound": "CCc1nc2ccc(Br)cn2c1C(=O)NCc1ccc(Oc2ccc(OC(F)(F)F)cc2)cc1 [compound 226]",
    "experimental_value": "152.9 °C"
  },
  {
    "compound": "CCc1nc2cc(Cl)ccn2c1COc1ccc(N2CCN(c3ccc(F)cc3)CC2)cc1 [compound 400]",
    "experimental_value": "167.5 °C"
  }
]

---

Listed here: items and their measured inhibition at 10 µM.
# measured_target: Human 5-lipoxygenase (Homo sapiens, UniProt P09917)
# Construct: purchased Cayman 60402; host or cells: insect cells
# Sequence (P09917 whole entry): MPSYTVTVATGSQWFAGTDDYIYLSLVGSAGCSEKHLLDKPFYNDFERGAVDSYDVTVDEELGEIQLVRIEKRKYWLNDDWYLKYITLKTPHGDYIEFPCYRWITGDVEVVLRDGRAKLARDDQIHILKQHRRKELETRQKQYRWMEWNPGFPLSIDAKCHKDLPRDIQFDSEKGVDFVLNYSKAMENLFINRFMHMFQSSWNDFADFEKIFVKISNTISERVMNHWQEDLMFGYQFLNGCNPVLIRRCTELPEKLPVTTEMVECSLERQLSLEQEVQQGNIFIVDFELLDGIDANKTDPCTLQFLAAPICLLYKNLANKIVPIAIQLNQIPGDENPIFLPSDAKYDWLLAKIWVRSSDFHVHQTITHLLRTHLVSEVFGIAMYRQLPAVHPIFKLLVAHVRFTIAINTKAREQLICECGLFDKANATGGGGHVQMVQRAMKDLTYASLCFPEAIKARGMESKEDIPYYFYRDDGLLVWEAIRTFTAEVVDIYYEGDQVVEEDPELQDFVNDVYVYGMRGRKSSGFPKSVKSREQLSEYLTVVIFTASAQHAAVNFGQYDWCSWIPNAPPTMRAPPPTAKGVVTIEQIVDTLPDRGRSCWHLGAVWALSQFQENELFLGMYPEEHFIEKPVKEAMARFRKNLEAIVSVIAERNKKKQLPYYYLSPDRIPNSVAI
# test_method_notes: Activity of compounds against 5-LO enzyme (LTB4 measurement and/or fluorescence method)
# Assay type: biochemical
# condition: 5-LO, single concentration of 10 uM in duplicate
readout: inhibition at 10 µM

[
  {
    "compound": "Cc1nc2ccc(Cl)cn2c1C(=O)NCc1ccc(OC(F)(F)F)cc1 [compound 184]",
    "readout": "inhibition at 10 µM",
    "experimental_value": "< 40%"
  },
  {
    "compound": "CCc1nc2ccccn2c1C(=O)NCc1ccc(N2CCC(c3ccc(OC(F)(F)F)cc3)CC2)cc1 [compound 266]",
    "readout": "inhibition at 10 µM",
    "experimental_value": "> 69%"
  },
  {
    "compound": "CCc1nc2cc(Cl)c(Cl)cn2c1C(=O)NCc1ccc(N2CCN(c3ccc(F)cc3)CC2)cc1 [compound 180]",
    "readout": "inhibition at 10 µM",
    "experimental_value": "< 40%"
  },
  {
    "compound": "CCc1nc2cc(Cl)ccn2c1C(=O)NCc1ccc(N2CCC(COC)CC2)cc1 [compound 248]",
    "readout": "inhibition at 10 µM",
    "experimental_value": "< 40%"
  },
  {
    "compound": "Cc1nc2c(O)cccn2c1C(=O)NCc1ccccc1 [compound 48]",
    "readout": "inhibition at 10 µM",
    "experimental_value": "< 40%"
  },
  {
    "compound": "CCc1nc2ccc(C(F)(F)F)cn2c1C(=O)NCc1ccc(OC(F)(F)F)cc1 [compound 121]",
    "readout": "inhibition at 10 µM",
    "experimental_value": "40 to 69%"
  },
  {
    "compound": "CCc1nc2ccc(Cl)cn2c1C(=O)N1CCC(OCc2ccc(C)cc2)CC1 [compound 331]",
    "readout": "inhibition at 10 µM",
    "experimental_value": "< 40%"
  },
  {
    "compound": "Cc1nc2ccccn2c1C(=O)NCc1ccc2[nH]ccc2c1 [compound 21]",
    "readout": "inhibition at 10 µM",
    "experimental_value": "< 40%"
  },
  {
    "compound": "CCc1nc2ccc(Cl)cn2c1C(=O)NCc1ccc(N2CCC(C(=O)N(C)C)CC2)cc1 [compound 293]",
    "readout": "inhibition at 10 µM",
    "experimental_value": "< 40%"
  },
  {
    "compound": "CCc1nc2cc(Cl)ccn2c1C(=O)NCc1ccc(N2CCN(c3ccc(OC(F)(F)F)cc3)CC2)cc1 [compound 159]",
    "readout": "inhibition at 10 µM",
    "experimental_value": "40 to 69%"
  },
  {
    "compound": "CCc1nc2cc(Cl)ccn2c1NC(=O)c1ccc(-c2ccccc2)cc1 [compound 115]",
    "readout": "inhibition at 10 µM",
    "experimental_value": "40 to 69%"
  },
  {
    "compound": "CCc1nc2ccc(Cl)cn2c1CNCCc1cccnc1 [compound 343]",
    "readout": "inhibition at 10 µM",
    "experimental_value": "< 40%"
  },
  {
    "compound": "CCc1nc2ccc(Cl)cn2c1C(=O)NCc1ccc(N2CCC(C(=O)Cc3ccc(F)cc3)CC2)cc1 [compound 325]",
    "readout": "inhibition at 10 µM",
    "experimental_value": "< 40%"
  },
  {
    "compound": "CCc1nc2ccccn2c1CN1CCC(Cn2cc(C(O)(CC)C(F)(F)F)nn2)CC1 (stereo not shown) [compound 351]",
    "readout": "inhibition at 10 µM",
    "experimental_value": "< 40%"
  },
  {
    "compound": "CCc1nc2cc(Cl)ccn2c1C(=O)NCc1ccc(NCc2ccc(OC(F)(F)F)cc2)cc1 [compound 215]",
    "readout": "inhibition at 10 µM",
    "experimental_value": "40 to 69%"
  },
  {
    "compound": "CCc1nc2ccc(Cl)cn2c1C=O [compound 145]",
    "readout": "inhibition at 10 µM",
    "experimental_value": "< 40%"
  },
  {
    "compound": "CCc1nc2cc(Cl)ccn2c1C(=O)NCc1ccc(-c2ccccc2Cl)cc1 [compound 82]",
    "readout": "inhibition at 10 µM",
    "experimental_value": "40 to 69%"
  },
  {
    "compound": "CCc1nc2ccc(Cl)cn2c1C(=O)NCc1ccc(Cl)cc1 [compound 78]",
    "readout": "inhibition at 10 µM",
    "experimental_value": "< 40%"
  },
  {
    "compound": "CCc1nc2cc(Cl)ccn2c1C(=O)NCc1ccc(N2CCOCC2)c(Cl)c1 [compound 303]",
    "readout": "inhibition at 10 µM",
    "experimental_value": "< 40%"
  },
  {
    "compound": "CCc1nc2ccc(Cl)cn2c1C(=O)NCc1ccc(N2CCN(C)CC2)cc1 [compound 105]",
    "readout": "inhibition at 10 µM",
    "experimental_value": "< 40%"
  },
  {
    "compound": "CCc1nc2ccc(Cl)cn2c1C(=O)NCc1ccc(-c2ccccc2Cl)cc1 [compound 72]",
    "readout": "inhibition at 10 µM",
    "experimental_value": "40 to 69%"
  },
  {
    "compound": "CCOC(=O)c1c(C)nc2ccc(-c3ccccc3)cn12 [compound 27]",
    "readout": "inhibition at 10 µM",
    "experimental_value": "40 to 69%"
  },
  {
    "compound": "CCc1nc2ccc(Cl)cn2c1C(=O)NCc1cccc(OCc2ccc(OC(F)(F)F)cc2)c1 [compound 353]",
    "readout": "inhibition at 10 µM",
    "experimental_value": "< 40%"
  },
  {
    "compound": "CCc1nc2cc(Cl)ccn2c1C(=O)NCc1ccc(N2CCC(c3ccc(F)cc3)CC2)cc1 [compound 250]",
    "readout": "inhibition at 10 µM",
    "experimental_value": "40 to 69%"
  },
  {
    "compound": "CCc1nc2ccc(Cl)cn2c1C(=O)N1CCC(OCc2ccc(OC(F)(F)F)cc2)CC1 [compound 313]",
    "readout": "inhibition at 10 µM",
    "experimental_value": "> 69%"
  },
  {
    "compound": "CCc1nc2cc(Cl)ccn2c1C(=O)NCc1ccc(N2CCC(C(=O)N(C)C)CC2)cc1 [compound 294]",
    "readout": "inhibition at 10 µM",
    "experimental_value": "< 40%"
  },
  {
    "compound": "CCc1nc2cc(Cl)ccn2c1C(=O)NCc1ccc(Oc2ccc(OC(F)(F)F)cc2)nc1 [compound 190]",
    "readout": "inhibition at 10 µM",
    "experimental_value": "> 69%"
  },
  {
    "compound": "CCc1nc2cc(Cl)ccn2c1C(=O)NCc1cccc(-c2ccc(OC(F)(F)F)cc2)c1 [compound 204]",
    "readout": "inhibition at 10 µM",
    "experimental_value": "< 40%"
  },
  {
    "compound": "CCc1nc2ccc(Cl)cn2c1C(=O)N1CCC(Cn2cc(C(O)(CC)C(F)(F)F)nn2)CC1 (stereo not shown) [compound 350]",
    "readout": "inhibition at 10 µM",
    "experimental_value": "< 40%"
  },
  {
    "compound": "CCc1nc2ccc(Br)cn2c1C(=O)NCc1ccc(N2CCN(c3ccc(F)cc3)CC2)cc1 [compound 229]",
    "readout": "inhibition at 10 µM",
    "experimental_value": "< 40%"
  },
  {
    "compound": "CCc1nc2cc(Cl)ccn2c1C(=O)NCc1ccc(-c2ccc(C#N)cc2C)cc1 [compound 109]",
    "readout": "inhibition at 10 µM",
    "experimental_value": "40 to 69%"
  },
  {
    "compound": "CCc1nc2ccc(Cl)cn2c1C(=O)NCc1ccc(C(C)(C)C)cc1 [compound 63]",
    "readout": "inhibition at 10 µM",
    "experimental_value": "40 to 69%"
  },
  {
    "compound": "CCc1nc2cc(Cl)ccn2c1C(=O)NCc1ccc(N2CCC(F)(F)CC2)cc1 [compound 236]",
    "readout": "inhibition at 10 µM",
    "experimental_value": "40 to 69%"
  },
  {
    "compound": "Cc1nc2cc(-c3ccccc3)ccn2c1C(=O)NCc1ccccc1 [compound 22]",
    "readout": "inhibition at 10 µM",
    "experimental_value": "40 to 69%"
  }
]
